Target entity: T1, HSP70 (human HSP70; the antigen of the binning, humanization and variant binding assays) (human, UniProt P0DMV8 1-641, limits assumed)
T1 construct: also called hu HSP70
T1 sequence (P0DMV8 whole entry, change not shown): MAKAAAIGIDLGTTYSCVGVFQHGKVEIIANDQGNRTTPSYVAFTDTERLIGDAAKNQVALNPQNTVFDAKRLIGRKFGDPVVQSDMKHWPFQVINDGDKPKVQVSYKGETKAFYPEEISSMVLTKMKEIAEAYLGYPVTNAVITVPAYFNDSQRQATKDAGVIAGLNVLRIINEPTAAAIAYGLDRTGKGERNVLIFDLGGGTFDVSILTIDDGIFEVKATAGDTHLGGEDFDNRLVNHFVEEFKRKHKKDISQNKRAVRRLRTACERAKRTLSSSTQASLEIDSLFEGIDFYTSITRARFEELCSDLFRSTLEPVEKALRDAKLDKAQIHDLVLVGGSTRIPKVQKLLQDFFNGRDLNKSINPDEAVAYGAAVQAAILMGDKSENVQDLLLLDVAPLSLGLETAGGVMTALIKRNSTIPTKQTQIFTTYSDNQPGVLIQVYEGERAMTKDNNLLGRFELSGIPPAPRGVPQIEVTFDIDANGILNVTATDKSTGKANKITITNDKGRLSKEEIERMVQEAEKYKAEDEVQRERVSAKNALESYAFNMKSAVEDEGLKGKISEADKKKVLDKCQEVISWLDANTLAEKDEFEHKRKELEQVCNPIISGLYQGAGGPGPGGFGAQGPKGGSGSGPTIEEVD
Method: BLI, anti-human Fc capture, steady state
Measured KD Steady State accompanies every entry in the list below.
Endpoint label: KD Steady State (nM)

Binder	Test result
h77A-1.71 (antibody, V domains shown, captured by anti-human Fc) VH: QIQLVQSGSEVKKPGASVKVSCKASGYTFTNYGMNWVRQAPGQGLEWMGWINTYTGEPTYADDFKGRFTFTTDTSTSTAYMDLRSLRSDDTAVYFCARYDHAMDYWGQGTLVTVSS VL: EIVLTQSPDSLSVSLGERATIKCKSSQSLLNSGTRKNYLAWYQQKAGQSPKLLIYWTSTRESGVPDRFSGSGSGTDFTLTIDSLQTEDVAVYYCKQSYTLYTFGGGTKVEIK	1.3
h77A-1.18 (antibody, V domains shown, captured by anti-human Fc) VH: QIQLVQSGAEVKKPGASVKVSCKASGYTFTNYGMNWVRQAPGQGLEWMGWINTYTGEPTYADDFKGRFTFTTDTSTRTAYMELRSLRSDDTAVYFCARYDHAMDYWGQGTLVTVSS VL: EIVLTQSPDSLAVSLGERATINCKSSQSLLNSGTRKNYLAWYQQKAGQSPKLVIYWTSTRESGVPDRFSGSGSGTDFTLTIDSLQAEDVAVYYCKQSYTLYTFGGGTKVEIK	0.81
h77A-1.61 (antibody, V domains shown, captured by anti-human Fc) VH: QIQLVQSGAEVKKPGASVKVSCKASGYTFTNYGMNWVRQAPGQGLEWMGWINTYTGEPTYADDFKGRFTFTTDTSTSTAYMELRSLRSDDTAVYFCARYDHAMDYWGQGSLVTVSS VL: EIVLTQSPDSLAVSLGERATINCKSSQSLLNSGTRKNYLAWYQKKSGQSPKLLIYWTSTRESGVPDRFSGSGSGTDFTLSIDSLQAEDVAVYYCKQSYTLYTFGGGTKVEIK	2.1
h77A-1.12 (antibody, V domains shown, captured by anti-human Fc) VH: QIQLVQSGAEVKKPGASVKVSCKASGYTFTNYGMNWVRQAPGQGLEWMGWINTYTGEPTYADDFKGRFTFTTDTSTSTAYMELRSLRSDDTAVYFCARYDHAMDYWGQGTLVTVSS VL: EIVLTQSPDSLAVSLGERATINCKSSQSLFNSGTRKNYLAWYQQKAGQSPKLLIYWTSTRESGVPDRFSGSGSGTDFTLTIDSLQAEDVAVYYCKQSYTLYTFGGGTKVEIK	1.1
h77A-1.16 (antibody, V domains shown, captured by anti-human Fc) VH: QIQLVQSGAEVKKPGASVKVSCKASGYTFTKYGMNWVRQAPGQGLEWMGWINTYTGEPTYADDFKGRFTFTTDTSTSTAYMELRSLRSDDTAVYFCARYDHAMDYWGQGTLVTVSS VL: EIVLTQSPDSLAVSLGERATIKCKSSQSLLNSGTRKNYLAWYQQKAGQSPKLLIYWTSTRESGVPDRFSGSGSGTDFTLTIDSLQAEDVAVYYCKQSYTLYTFGGGTKVEIK	1.3

Data credit: patent US20250084155A1
